assay: Inhibition of human CYP1A1 expressed in HEK293 cells assessed as reduction in CYP1A1 mediated B[alpha]P-7,8- dihydrodiol induced-toxicity by measuring EC50 at 3 times of IC50 concentration by MTT assay (Rvb = 1.4 +/ 0.4 uM)
OUTCOME MEASURE: pEC50
The meaning of pEC50 here: minus log10 of the concentration in molar units.

- SMILES ENTRY: "O=c1cc(-c2ccccc2)oc2c1ccc1occc12"
  VALUE OBSERVED: 4.84

Q. # return recorded pEC50 for input "COc1c(-c2ccc3c(c2)OCO3)oc2c(ccc3occc32)c1=O"
A. 4.83

Q. # return recorded pEC50 for input "COc1c(C(=O)/C=C(\O)c2ccccc2)ccc2occc12"
A. 4.99
